Assay: log P by HPLC on reversed phase columns (Method L0; [a] acidic, [b] neutral range)
metric: chromatographic logP
Answer with a number only.

Take a look at these entries with their results.
test smiles	assay value
Cc1nn2c(C(C)C)c(C(=O)N[C@H]3CCc4ccccc43)cnc2c1-c1cccc(OC(F)(F)F)c1	5.48
Cc1nn2c(C3CC3)c(C(=O)N[C@H]3CCOc4ccccc43)cnc2c1-c1cccc(N(C)C)c1	2.72
Cc1nn2c(C(C)C)c(C(=O)N[C@H]3CCOc4ccccc43)cnc2c1-c1ccc(F)c(Cl)c1F	4.8
Cc1nn2c(C(C)C)c(C(=O)N[C@H]3CCOc4ccccc43)cnc2c1-c1cc(O)c(F)c(F)c1	3.61
Cc1nn2c(C(C)C)c(C(=O)N[C@H]3CCc4ccccc43)cnc2c1-c1ccc(C(F)(F)F)cc1	5.32
Cc1nn2c(C(C)C)c(C(=O)N[C@H]3CCc4ccccc43)cnc2c1-c1cccc(-n2cccn2)c1	4.4
Cc1nn2c(C(C)C)c(C(=O)N[C@H]3CCOc4ccccc43)cnc2c1-c1ccc(F)c(F)c1	4.56
Cc1nn2c(N3CCOCC3)c(C(=O)N[C@H]3CCOc4ccccc43)cnc2c1-c1cc(Cl)cc(Cl)c1	3.99
Cc1nn2c(C(C)C)c(C(=O)N[C@H]3CCOc4ccccc43)cnc2c1-c1ccccc1Cl	4.37
Cc1nn2c(C(C)C)c(C(=O)N[C@H]3CCOc4ccccc43)cnc2c1-c1ccc(Cl)cc1	4.88

Req: Returns the measured chromatographic logP for the input compound. Input: Cc1nn2c(C(C)C)c(C(=O)N[C@H]3CCc4ccccc43)cnc2c1-c1cccc(F)c1
Resp: 4.73

Req: Returns the measured chromatographic logP for the input compound. Input: Cc1nn2c(C(C)C)c(C(=O)N[C@H]3CCCc4ccccc43)cnc2c1-c1cccc(Cl)c1Cl
Resp: 5.46

Req: Returns the measured chromatographic logP for the input compound. Input: Cc1nn2c(C(C)C)c(C(=O)N[C@H]3CCOc4ccccc43)cnc2c1-c1ccc(Cl)c(F)c1
Resp: 5.08

Req: Returns the measured chromatographic logP for the input compound. Input: CC(C)c1c(C(=O)N[C@H]2CCc3ccccc32)cnc2c(-c3c(F)cccc3F)c(C(F)F)nn12
Resp: 4.23

Req: Returns the measured chromatographic logP for the input compound. Input: Cc1nn2c(C3CC3)c(C(=O)N[C@H]3CCc4ccccc43)cnc2c1-c1c(F)cccc1Cl
Resp: 3.89

* * *

Experiment: log P by HPLC on reversed phase columns (Method L0; [a] acidic, [b] neutral range)
Settings: HPLC on reversed phase columns (Method L0)
metric: log P
Answer with a number only.

compound	log P
Cc1nn2c(C(C)C)c(C(=O)N[C@H]3CCc4ccccc43)cnc2c1-c1ccc(NS(C)(=O)=O)cc1	3.38
Cc1nn2c(C(C)C)c(C(=O)N[C@H]3CCOc4ccccc43)cnc2c1-c1cccc(OC(F)(F)F)c1F	5.02
Cc1nn2c(C(C)C)c(C(=O)N[C@H]3CCOc4ccccc43)cnc2c1-c1ccc(Cl)c(Cl)c1	5.48
CCSc1nn2c(C(C)C)c(C(=O)N[C@H]3CCc4ccccc43)cnc2c1-c1cc(Cl)cc(Cl)c1	6.93
CC(C)Sc1nn2c(C(C)C)c(C(=O)N[C@H]3CCOc4ccccc43)cnc2c1-c1cc(Cl)cc(Cl)c1	7
Cc1nn2c(C(C)C)c(C(=O)N[C@H]3CCc4ccccc43)cnc2c1-c1cccc(C[S+](C)[O-])c1 (some centres unmarked)	3.05
COc1cccc(-c2c(C)nn3c(C(F)(F)F)c(C(=O)N[C@H]4CCc5ccccc54)cnc23)c1	4.34
Cc1nn2c(C(C)C)c(C(=O)N[C@H]3CCc4ccccc43)cnc2c1-c1cnn(CC(F)(F)F)c1	3.81

Req: Returns the measured log P for the input compound. Input: Cc1nn2c(C(C)C)c(C(=O)N[C@H]3CCc4ccccc43)cnc2c1-c1ccc(C#N)cc1
Resp: 4.28

Req: Returns the measured log P for the input compound. Input: Cc1nn2c(C(C)C)c(C(=O)N[C@H]3CCCc4ccccc43)cnc2c1-c1cnn(CC(F)(F)F)c1
Resp: 4.11

Req: Returns the measured log P for the input compound. Input: CC(C)c1c(C(=O)N[C@H]2CCc3ccccc32)cnc2c(-c3cc(Cl)cc(Cl)c3)c(S(=O)(=O)C(C)C)nn12
Resp: 4.85

Req: Returns the measured log P for the input compound. Input: Cc1nn2c(C(F)(F)F)c(C(=O)N[C@H]3CCc4ccccc43)cnc2c1-c1cccc(C(F)(F)F)c1
Resp: 5.04

Req: Returns the measured log P for the input compound. Input: COc1c(F)cc(F)c(-c2c(C)nn3c(C(C)C)c(C(=O)N[C@H]4CCOc5ccccc54)cnc23)c1F
Resp: 4.38

Req: Returns the measured log P for the input compound. Input: Cc1nn2c(C(C)C)c(C(=O)N[C@H]3CCc4ccccc43)cnc2c1-c1ccc(OCC(F)(F)F)cc1
Resp: 4.91
